test: Lipophilicity of the compound assessed as retention time by HPLC method; format: physicochemical
MEASURE_NAME: Retention_time (min)

COc1cccc(C(=N)Nc2cc(C(=O)Nc3cc(C(=O)Nc4nc(C(=O)NCCCN(C)C)c(CCC(C)C)s4)n(C)c3)n(C)c2)c1; 26.8
CC(C)CCc1sc(NC(=O)c2cc(NC(=O)c3cc(NC(=N)c4ccccc4)cn3C)cn2C)nc1C(=O)NCCCN(C)C; 26.2
CC(=O)Nc1cc(C(=O)Nc2cc(C(=O)Nc3cc(C(=O)NCCCN(C)C)n(CCC(C)C)c3)n(C)c2)n(C)c1; 22.8
CC(C)CCn1cc(NC(=O)c2cc(NC(=O)c3cc(NC(=N)N)cn3C)cn2C)cc1C(=O)NCCCN(C)C; 20.1
CC(C)CCc1sc(NC(=O)c2cc(NC(=O)c3cc(NC(=N)c4ccc(Cl)cc4)cn3C)cn2C)nc1C(=O)NCCCN(C)C; 26.8
CC(C)CCc1sc(NC(=O)c2cc(NC(=O)c3cc(NC(=N)c4cccc(F)c4)cn3C)cn2C)nc1C(=O)NCCCN(C)C; 26.2
CC(C)CCc1sc(NC(=O)c2cc(NC(=O)c3cc(NC(=N)N)cn3C)cn2C)nc1C(=O)NCCCN(C)C; 23.4

---

assay: Cytotoxicity against HEK293 cells reduction in cell viability after 20 hrs by resazurin dye based fluorescence assay; settings: human
MEASURE_NAME: CC50 at 20 h (µg/mL)

CC(C)CCc1sc(NC(=O)c2cc(NC(=O)c3cc(NC(=N)c4ccc(Cl)cc4)cn3C)cn2C)nc1C(=O)NCCCN(C)C; 10
CC(C)CCc1sc(NC(=O)c2cc(NC(=O)c3cc(NC(=N)N)cn3C)cn2C)nc1C(=O)NCCCN(C)C; 20

---

assay: Cytotoxicity against HEK293 cells reduction in cell viability after 20 hrs by resazurin dye based fluorescence assay; settings: human
MEASURE_NAME: CC50 at 20 h (µg/mL)

CC(C)CCc1sc(NC(=O)c2cc(NC(=O)c3cc(NC(=N)c4cccc(F)c4)cn3C)cn2C)nc1C(=O)NCCCN(C)C; 18
CC(C)CCc1sc(NC(=O)c2cc(NC(=O)c3cc(NC(=N)c4cccc(Cl)c4)cn3C)cn2C)nc1C(=O)NCCCN(C)C; 9.2

---

experiment: Lipophilicity of the compound assessed as retention time by HPLC method; assay type: physicochemical
MEASURE_NAME: Retention_time (min)

CC(C)CCc1sc(NC(=O)c2cc(NC(=O)c3cc(NC(=N)c4ccc(F)cc4)cn3C)cn2C)nc1C(=O)NCCCN(C)C; 26.2
CC(=O)Nc1cc(C(=O)Nc2cc(C(=O)Nc3cc(C(=O)NCCCN(C)C)n(C)c3)n(C)c2)n(C)c1; 18.3
CN(C)CCCNC(=O)c1cc(NC(=O)c2cc(NC(=O)c3cc(NC(=N)c4ccccc4)cn3C)cn2C)cn1C; 17.8
CC(C)CCn1cc(NC(=O)c2cc(NC(=O)c3cc(NC(=N)c4cnc5ccccc5c4)cn3C)cn2C)cc1C(=O)NCCCN(C)C; 24.8
CC(C)CCc1sc(NC(=O)c2cc(NC(=O)c3cc(NC(=N)c4cccc(Cl)c4)cn3C)cn2C)nc1C(=O)NCCCN(C)C; 26.9

---

As shown below, each of these compounds has a reported MIC99 value.
system: Mycobacterium tuberculosis; assay: Antimycobacterial activity against GFP labelled Mycobacterium tuberculosis H37Rv up to 14 days by fluorescence assay; format: functional; details: 336 h
MEASURE_NAME: MIC99

CN(C)CCCNC(=O)c1cc(NC(=O)c2cc(NC(=O)c3cc(NC(=N)c4cnc5ccccc5c4)cn3C)cn2C)cn1C; 25 µg/mL
CC(C)CCc1sc(NC(=O)c2cc(NC(=O)c3cc(NC(=N)c4cccc(F)c4)cn3C)cn2C)nc1C(=O)NCCCN(C)C; 3.1 µg/mL
CC(C)CCn1cc(NC(=O)c2cc(NC(=O)c3cc(NC(=N)c4cnc5ccccc5c4)cn3C)cn2C)cc1C(=O)NCCCN(C)C; 25 µg/mL
CC(C)CCc1sc(NC(=O)c2cc(NC(=O)c3cc(NC(=N)c4cccc(Cl)c4)cn3C)cn2C)nc1C(=O)NCCCN(C)C; 13 µg/mL
CC(C)CCc1sc(NC(=O)c2cc(NC(=O)c3cc(NC(=N)c4ccccc4)cn3C)cn2C)nc1C(=O)NCCCN(C)C; 25 µg/mL
COc1cccc(C(=N)Nc2cc(C(=O)Nc3cc(C(=O)Nc4nc(C(=O)NCCCN(C)C)c(CCC(C)C)s4)n(C)c3)n(C)c2)c1; 25 µg/mL
CC(C)CCc1sc(NC(=O)c2cc(NC(=O)c3cc(NC(=N)c4ccc(F)cc4)cn3C)cn2C)nc1C(=O)NCCCN(C)C; 3.1 µg/mL
CC(C)CCc1sc(NC(=O)c2cc(NC(=O)c3cc(NC(=N)c4ccc(Cl)cc4)cn3C)cn2C)nc1C(=O)NCCCN(C)C; 13 µg/mL
